molecular target: PcrV of P. aeruginosa strain PA103 (on TTSS-induced bacteria) (Pseudomonas aeruginosa strain PA103); experiment: cell-based or functional assay
QUANTITY NAME: Efficacy (%), P3X63 cytotoxicity, MOI 12
Just the number in %, nothing appended.

See these solved cases before continuing.
BINDER	Efficacy (%), P3X63 cytotoxicity, MOI 12
Nanobody 277 (5H01-40GS-11B09) (VHH) EVQLVESGGGLVQPGGSLRLSCAASGSTLDYYAIGWFRQAPGKEREGVSCTSNSGSTYYGGSVKGRFTASRDNAKNTVYLQMNSLRPEDTAVYYCVATIGCATLGGTLDVQRYYYRGQGTLVTVSSGGGGSGGGGSGGGGSGGGGSGGGGSGGGGSGGGGSGGGGSEVQLVESGGGLVQAGGSLRLSCAASRLTFNHYNMGWFRQAPGKERERVAEVTWSGDKIYYVDSVKGRFTISRDNTPNPVYLYLQMNSLKPEDTAVYYCATAPRGLPYANGYWGQGTLVTVSS	100
Fab 13.37 (Fab, V domains shown) VH: QVQLVESGGGVVQPGRSLRLSCAASGFTFSSYPLHWVRQAPGKGLEWVSFISYDGSEKYYASSVKGRFTISRDNSENTLYLQMNSLRPEDTAVYYCARNRGDIYYDFTYAMDIWGQGTMVTVSS VL: DIQMTQSPSSLSASVGDRVTITCRASQSISRWVAWYQQRPGKAPNLLIYDASSLKSGVPSRFSGSGSGTEFTLTISSLQPEDIATYYCQQFWGTPYTFGQGTKLEIKR	100

Shifting focus to the binder that follows.
The binder identified as Nanobody 256 (13F07-40GS-5H01) (VHH) EVQLVESGGGLVQAGGSLRLSCAASGNTFSTNPMYWYRQAEGKQRELVASISSRGITNYADSVRGRFSISRDNTKDTVYLQMNSLKPEDTAVYYCRLASLSSGTVYWGKGTLVTVSSGGGGSGGGGSGGGGSGGGGSGGGGSGGGGSGGGGSGGGGSEVQLVESGGGLVQPGGSLRLSCAASGSTLDYYAIGWFRQAPGKEREGVSCTSNSGSTYYGGSVKGRFTASRDNAKNTVYLQMNSLRPEDTAVYYCVATIGCATLGGTLDVQRYYYRGQGTLVTVSS registered its Efficacy (%), P3X63 cytotoxicity, MOI 12 at 100
